System: HLA-A*02:01
Assay Text: IEDB peptide-MHC binding, cellular MHC/competitive/fluorescence; bounds were set here for any values at or beyond the usual limits of such assays
Experimental Conditions: source organism: Vaccinia virus WR
Can you tell me IC50 for the items I'm about to list?
Give bare numbers, in µM.

Illustrative cases are given below, each with its answer.
CVRLNNPVIL :: 13.4
SAGFTATICL :: 10.4
DAMIHKTYI :: 8.17
AVYFKAKWLT :: 8.89

input: Using the record for LATLNTLIT , report its IC50.
output: 10.6

###

System: HLA-A*68:02
Assay Text: IEDB peptide-MHC binding, purified MHC/competitive/radioactivity; bounds were set here for any values at or beyond the usual limits of such assays
Experimental Conditions: source organism: SARS-CoV1
Observation Type: IC50
Answer format: value, then unit.

Illustrative cases are given below, each with its answer.
LLSAGIFGA :: 106 nM
TLIDFYLCFL :: 151 nM
LVIGVAFLAV :: 62 nM
LIDFYLCFL :: 93 nM
LLALQQLEV :: 83 nM
MLSVVGFLV :: 92 nM

Dear colleague, could you please provide IC50 for the sequences listed below?
1. LMGHFSWWTA
2. SLVKPTVYV

output:
82 nM
145 nM

input: Using the record for TQWSLFFFV , report its IC50.
output: 104 nM

###

System: HLA-A*02:01
Assay Text: IEDB peptide-MHC binding, purified MHC/competitive/radioactivity; bounds were set here for any values at or beyond the usual limits of such assays
Experimental Conditions: source organism: Mammarenavirus brazilense
pIC50: −log10 of the molar value.
pIC50 below 6 gives F; pIC50 at or above it gives T.

Past entries and their recorded results:
MVNHSTYYV :: T
YNYSLSAAV :: T
FQLIFFLTL :: T
TLVDICFWST :: T
HSLPRCWLV :: F

input: Is pIC50 for ALTSLGLLYT at or above 6?
output: T

input: Is pIC50 for GLFQLIFFL at or above 6?
output: T

input: Is pIC50 for CMVNHSTYYV at or above 6?
output: T

input: Is pIC50 for LLPDALLFTL at or above 6?
output: T

input: Is pIC50 for KCFGNTALA at or above 6?
output: F

###

System: HLA-A*02:06
Assay Text: IEDB peptide-MHC binding, purified MHC/competitive/radioactivity; bounds were set here for any values at or beyond the usual limits of such assays
Experimental Conditions: source organism: Vaccinia virus WR
Observation Type: IC50 (nM)
Answers are plain numbers, in nM.

Illustrative cases are given below, each with its answer.
CQCTVQEFI :: 1130
STDQDTMLFA :: 2020
LIAGIILLIL :: 345
KVYLSTFNM :: 265
EVERLMELPV :: 3630
RAKRKPAMST :: 1550
KLPTWLGAAI :: 295
PTSETMYLTM :: 915

Dear colleague, could you please provide IC50 for the sequences listed below?
1. ATFRDMLLNV
2. IMAFILGII
3. ILHNIYRLFT

output:
1: 3; 2: 175; 3: 1210

###

System: HLA-A*02:06
Assay Text: IEDB peptide-MHC binding, purified MHC/competitive/radioactivity; bounds were set here for any values at or beyond the usual limits of such assays
Experimental Conditions: source organism: Vaccinia virus WR
Observation Type: pIC50
One number for each entry, as −log10 of the molar value.

Illustrative cases are given below, each with its answer.
ILDNLRCHSA :: 6.53
PASISSVLTI :: 5.81
TICLKNEGV :: 6.51
CVDHPFIYVI :: 5.79
LAYYNSCMLT :: 7.07

Dear colleague, could you please provide pIC50 for the sequences listed below?
1. HLTENNLYI
2. NQGNILMDSI
3. VLPFDIKYI
4. TISWMMKLGI

output:
[5.74, 5.51, 6.30, 5.56]

###

System: HLA-A*02:02
Assay Text: IEDB peptide-MHC binding, purified MHC/competitive/radioactivity; bounds were set here for any values at or beyond the usual limits of such assays
Experimental Conditions: source organism: Vaccinia virus WR
Can you tell me log10(IC50) for the items I'm about to list?
Base-10 log of IC50, unit nM.

Illustrative cases are given below, each with its answer.
YLSKEDRII :: 2.48
YVEHDPRLV :: 3.07
TIFDIVSKCI :: 2.30
SVMNFIPII :: 1.11
ALLSCIRNA :: 2.08

Dear colleague, could you please provide log10(IC50) for the sequences listed below?
1. EMVEYLENQL
2. IVPEFAKQYV
3. EIDVSEVKTL
4. YAVLSEYETM
5. RVKQWVMDTL

output:
1: 2.33; 2: 1.00; 3: 3.69; 4: 2.20; 5: 3.54

Dear colleague, could you please provide log10(IC50) for the sequences listed below?
1. RTRCKYVGCT
2. VVISVIFYFI
3. YIAGLKIEEI
4. AITLVVISVI
5. MIGNYFSGVL
6. DTGKKELALT
7. KILSDENYLL

output:
1. 2.17
2. 2.38
3. 0.95
4. 2.61
5. 2.85
6. 3.02
7. 1.40

Dear colleague, could you please provide log10(IC50) for the sequences listed below?
1. NIKISLNEIL
2. TIILNKIVQL
3. NQLDSSNKSM
4. SMSQELAELL
5. IALCKVTVPT
6. FISPASISSV
7. AMLKSKNINI
8. ATLNTLITLI

output:
2.85
3.25
3.25
0.79
3.29
0.48
3.22
1.51

Dear colleague, could you please provide log10(IC50) for the sequences listed below?
1. YLGPRVCWL
2. NASKTINALV

output:
1: -0.05; 2: 2.88

input: Using the record for AVITETIPI , report its log10(IC50).
output: 2.51

###

System: HLA-A*02:06
Assay Text: IEDB peptide-MHC binding, purified MHC/competitive/radioactivity; bounds were set here for any values at or beyond the usual limits of such assays
Experimental Conditions: source organism: Mammarenavirus choriomeningitidis
Can you tell me pIC50 for the items I'm about to list?
One number for each entry, as −log10 of the molar value.

Illustrative cases are given below, each with its answer.
LSYSQTMLL :: 5.43
NSLILLECFV :: 8.38

Turning now to a further record.
input: Using the record for FSTSAYLISI , report its pIC50.
output: 8.46

###

Can you tell me IC50 for the items I'm about to list?
System: HLA-A*03:01
Assay Text: IEDB peptide-MHC binding, cellular MHC/competitive/fluorescence; bounds were set here for any values at or beyond the usual limits of such assays
Experimental Conditions: source organism: Hepatitis B virus

Illustrative cases are given below, each with its answer.
PLLPIFFCL :: ≥ 70 µM
RILTIPQSL :: ≥ 70 µM
GMLPVCPLI :: ≥ 70 µM
FLCKQYLNL :: ≥ 70 µM
ALMPLYACI :: ≥ 70 µM
HQLDPAFRA :: ≥ 70 µM
VLLDYQGML :: ≥ 70 µM
LVPFVQWFV :: ≥ 70 µM
SMYPSCCCT :: ≥ 70 µM
FLLTRILTI :: ≥ 70 µM

Dear colleague, could you please provide IC50 for the sequences listed below?
1. SLYSILSPFL
2. LLVLLDYQGM
3. FLPSDFFPSV
4. RVRGLYFPA
5. KQYLNLYPV

output:
["14.3 µM", "19.5 µM", "≥ 70 µM", "≥ 70 µM", "≥ 70 µM"]

input: Give the reported IC50 for FLGPLLVLQA (system: HLA-A*03:01).
output: 33.1 µM

###

System: HLA-A*02:01
Assay Text: IEDB peptide-MHC binding, purified MHC/competitive/radioactivity; bounds were set here for any values at or beyond the usual limits of such assays
Experimental Conditions: source organism: Hepacivirus hominis
Can you tell me pIC50 for the items I'm about to list?
Give bare numbers, as −log10 of the molar value.

Illustrative cases are given below, each with its answer.
GLLYFILFFV :: 7.29
LLLGLLLLCV :: 5.66
ALLRMCALV :: 7.47
LLSTTEWQV :: 7.17
VLQAGITRV :: 7.25
YLYGIGSAVV :: 7.41

Dear colleague, could you please provide pIC50 for the sequences listed below?
1. VLMVDSFDPV
2. SMMSFSAAL
3. RLHGLEAFSL
4. RLLAPITAYA
5. YSMAGNWAKV

output:
7.48
7.89
6.65
7.54
6.76

Dear colleague, could you please provide pIC50 for the sequences listed below?
1. SISGVLWTV
2. VLAGGVLAAV
3. FMLCLLLLSV
4. KIMSGEKPSV
5. GLIHACMLV

output:
[7.96, 8.11, 6.83, 5.95, 8.89]

###

Can you tell me IC50 for the items I'm about to list?
System: HLA-A*02:01
Assay Text: IEDB peptide-MHC binding, cellular MHC/competitive/fluorescence; bounds were set here for any values at or beyond the usual limits of such assays
Experimental Conditions: source organism: Vaccinia virus WR
One number for each entry, in µM.

Illustrative cases are given below, each with its answer.
EIPTRTLDTA :: 59
ELMPIRTDTT :: 11.7
MIGNYFSGVL :: 5.76
PTNKLQAAVM :: 29.5

Turning now to a further record.
input: Using the record for EITELVVEYM , report its IC50.
output: 35.6
